target: T1, human CD8αα homodimer, recombinant protein (Acro Biosystems) (human, UniProt P01732 22-182); test: BLI kinetic rate analysis, Fab fragment (temperature not given)
T1 construct: also called CD8αα antigen; biotinylated CD8α recombinant protein (CDA-H82E3)
T1 sequence (P01732 22-182 limits assumed): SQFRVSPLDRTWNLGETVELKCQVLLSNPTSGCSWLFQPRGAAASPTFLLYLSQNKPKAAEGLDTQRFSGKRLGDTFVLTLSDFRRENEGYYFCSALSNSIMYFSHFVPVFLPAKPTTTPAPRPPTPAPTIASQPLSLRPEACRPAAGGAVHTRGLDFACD
parameter: koff (s⁻¹)
Please give a number only; it is taken to be in s⁻¹.

Below, 3 binders whose answers are already recorded.
| binder | unit.symbol | koff |
| --- | --- | --- |
| CBD1444 Fab (VL D30S of CBD1033) (Fab, V domains shown) VH: QVQLVQSGAEVKKPGASVKVSCKASRYTFTDYNLHWVRQAPGQGLEWMGFIYPYNGGTGYAQKFQGRVTMTVDTSTSTAYMELSSLRSEDTAVYYCARDHRYNEGVSFDYWGQGTTVTVSS VL: DIQLTQSPSSLSASVGDRATITCRASESVSGFGNSFMNWYQQKPGKAPKLLIYLASNLESGVPSRFSGSGSGTDFTLTISSVQPEDFATYYCQQNNEDPYTFGQGTKLEIK | s⁻¹ | 0.000196 |
| CBD1033 Fab (h1017-H2 / h1017-L2) (Fab, V domains shown, Expressed as F(ab) fragment; also called CBD1033 Fab molecule) VH: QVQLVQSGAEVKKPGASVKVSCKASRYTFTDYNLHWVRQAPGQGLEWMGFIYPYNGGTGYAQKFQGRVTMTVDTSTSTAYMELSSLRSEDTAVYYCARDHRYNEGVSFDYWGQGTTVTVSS VL: DIQLTQSPSSLSASVGDRATITCRASESVDGFGNSFMNWYQQKPGKAPKLLIYLASNLESGVPSRFSGSGSGTDFTLTISSVQPEDFATYYCQQNNEDPYTFGQGTKLEIK | s⁻¹ | 0.000195 |
| CBD1380 (Fab, V domains shown) VH: QVQLVQSGAEVKKPGASVKVSCKASRYTFTDYNLHWVRQAPGQGLEWMGFIYPYSGGTGYAQKFQGRVTMTVDTSTSTAYMELSSLRSEDTAVYYCARDHRYNEGVSFDYWGQGTTVTVSS VL: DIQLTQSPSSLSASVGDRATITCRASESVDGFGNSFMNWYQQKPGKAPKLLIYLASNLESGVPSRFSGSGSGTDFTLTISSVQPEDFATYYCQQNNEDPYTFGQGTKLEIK | s⁻¹ | 0.000116 |

Turning now to a further binder:
For record CBD1445 Fab (VL D30A of CBD1033) (Fab, V domains shown) VH: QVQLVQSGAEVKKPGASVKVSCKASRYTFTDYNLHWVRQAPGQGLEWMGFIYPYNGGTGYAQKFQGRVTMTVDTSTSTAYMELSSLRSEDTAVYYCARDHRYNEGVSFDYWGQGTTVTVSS VL: DIQLTQSPSSLSASVGDRATITCRASESVAGFGNSFMNWYQQKPGKAPKLLIYLASNLESGVPSRFSGSGSGTDFTLTISSVQPEDFATYYCQQNNEDPYTFGQGTKLEIK the listed koff is 0.00048
